Test system: A549
METHOD SUMMARY: Cytotoxicity against human A549 cells assessed as cell viability at 1 uM after 72 hrs by MTT assay relative to control
Format: functional
CONDITION CONTEXT: A549, 72 h, read-out: Activity
Note to self: use label 1 only for viability at 1 µM readings below 90%; a reading exactly at 90% still gets label 0.

Study these solved cases before continuing.
1. COC(=O)Nc1nc2cc(C(=O)c3ccc(N(C)C4COC4)cc3)ccc2[nH]1 = label 1
2. COC(=O)Nc1nc2cc(Oc3cccc(N4CCN(C)CC4)c3)ccc2[nH]1 = label 1
3. O=C(Nc1nc2cc(C(=O)c3ccccc3)ccc2[nH]1)OC1COC1 = label 1

QUERY: A record lists "CCCSc1ccc2[nH]c(NC(=O)OC3COC3)nc2c1" . Is its viability at 1 µM below 90%?
RESULT: label 1

QUERY: Cool, now "CN(C)CCOC(=O)Nc1nc2cc(C(=O)c3ccccc3)ccc2[nH]1"
RESULT: label 0

QUERY: Cool, now "O=C(Nc1nc2cc(Sc3ccccc3)ccc2[nH]1)OC1COC1"
RESULT: label 1

QUERY: Cool, now "CCCSc1ccc2[nH]c(NC(=O)OCCN(C)C)nc2c1"
RESULT: label 1

QUERY: Cool, now "COC(=O)Nc1nc2cc(C(=O)c3ccccc3N(C)C3COC3)ccc2[nH]1"
RESULT: label 0

----------
System: Calu-1
METHOD SUMMARY: Cytotoxicity against human Calu1 cells assessed as reduction in cell viability after 72 hrs by MTT assay
Assay type: functional, cell-based
CONDITION CONTEXT: Calu-1, 72 h
Field: pEC50. Provide a value for each of the compounds that follow.
Give bare numbers, as −log10 of the molar value.

1. COC(=O)Nc1nc2cc(C(=O)c3ccccc3)ccc2[nH]1 [MEBENDAZOLE] = 5.96

Consider the additional compound presented here.
QUERY: Entry "COC(=O)Nc1nc2cc(C(=O)c3ccc(N(C)C4COC4)cc3)ccc2[nH]1" has what pEC50?
RESULT: 5.80

----------
METHOD SUMMARY: Cytotoxicity against human PC3MLN4 cells assessed as cell viability at 1 uM after 72 hrs by MTT assay relative to control
Format: functional
CONDITION CONTEXT: read-out: Activity
VALUE TYPE: viability at 1 µM (%)
Numbers only, in %.

1) CCCSc1ccc2[nH]c(NC(=O)OCCCN(C)C)nc2c1 = 86.7
2) CCCSc1ccc2[nH]c(NC(=O)OCCN(C)C)nc2c1 = 92.7
3) COC(=O)Nc1nc2cc(C(=O)c3ccccc3N(C)C3COC3)ccc2[nH]1 = 100
4) COC(=O)Nc1nc2cc(C(=O)c3ccccc3)ccc2[nH]1 [MEBENDAZOLE] = 53.9
5) CN(C)CCOC(=O)Nc1nc2cc(C(=O)c3ccc(F)cc3)ccc2[nH]1 = 84.6

Value sought for every listed molecule: viability at 1 µM.
1. COC(=O)Nc1nc2cc(Oc3cccc(N4CCN(C)CC4)n3)ccc2[nH]1
2. CCCSc1ccc2[nH]c(NC(=O)OCC3(C)COC3)nc2c1
3. CN(C)CCOC(=O)Nc1nc2cc(Sc3ccccc3)ccc2[nH]1
4. CN(C)CCOC(=O)Nc1nc2cc(C(=O)c3ccccc3)ccc2[nH]1
5. CN(C)CCCOC(=O)Nc1nc2cc(C(=O)c3ccc(F)cc3)ccc2[nH]1
6. O=C(Nc1nc2cc(C(=O)c3ccccc3)ccc2[nH]1)OC1COC1

RESULT:
1: 83; 2: 87.6; 3: 98.1; 4: 101; 5: 87.3; 6: 70.6

Value sought for every listed molecule: viability at 1 µM.
1. COC(=O)Nc1nc2cc(C(=O)c3ccc(N(C)C4COC4)cc3)ccc2[nH]1
2. CCCSc1ccc2[nH]c(NC(=O)OC3COC3)nc2c1
3. COC(=O)Nc1nc2cc(Oc3cccc(N4CCN(C)CC4)c3)ccc2[nH]1
4. O=C(Nc1nc2cc(Sc3ccccc3)ccc2[nH]1)OC1COC1

RESULT:
34.9
88.3
86.3
80.2

----------
Field: EC50. Provide a value for each of the compounds that follow.
Tested on: NCI-H157
METHOD SUMMARY: Cytotoxicity against human NCI-H157 cells assessed as reduction in cell viability after 72 hrs by MTT assay
Assay type: functional, cell-based
CONDITION CONTEXT: NCI-H157, 72 h

1. COC(=O)Nc1nc2cc(C(=O)c3ccccc3)ccc2[nH]1 [MEBENDAZOLE] = 3500 nM

QUERY: Write down the reported EC50 of "COC(=O)Nc1nc2cc(C(=O)c3ccc(N(C)C4COC4)cc3)ccc2[nH]1" , test system: NCI-H157.
RESULT: 2400 nM

----------
Field: EC50. Provide a value for each of the compounds that follow.
Test system: SK-OV-3
METHOD SUMMARY: Cytotoxicity against human SKOV3 cells assessed as reduction in cell viability after 72 hrs by MTT assay
Assay type: functional, cell-based
CONDITION CONTEXT: SK-OV-3, 72 h
One number for each entry, in nM.

1) COC(=O)Nc1nc2cc(C(=O)c3ccccc3)ccc2[nH]1 = 500

QUERY: Entry "COC(=O)Nc1nc2cc(C(=O)c3ccc(N(C)C4COC4)cc3)ccc2[nH]1" has what EC50?
RESULT: 1000

----------
METHOD SUMMARY: Kinetic solubility in pH 7.4 PBS buffer sonicated for 30 mins by HPLC-UV method
VALUE TYPE: solubility kinetic at 0.5 h
Write down the value, and be sure its unit follows.

QUERY: Entry "COC(=O)Nc1nc2cc(C(=O)c3ccc(N(C)C4COC4)cc3)ccc2[nH]1" has what solubility kinetic at 0.5 h?
RESULT: 253 µM

----------
System: A549
METHOD SUMMARY: Cytotoxicity against human A549 cells assessed as cell viability at 1 uM after 72 hrs by MTT assay relative to control
Assay type: functional
CONDITION CONTEXT: A549, 72 h, read-out: Activity
VALUE TYPE: viability at 1 µM (%)
Numbers only, in %.

1) COC(=O)Nc1nc2cc(Oc3cccc(N4CCN(C)CC4)n3)ccc2[nH]1 = 87.8
2) CN(C)CCOC(=O)Nc1nc2cc(Sc3ccccc3)ccc2[nH]1 = 91.8
3) CN(C)CCOC(=O)Nc1nc2cc(C(=O)c3ccc(F)cc3)ccc2[nH]1 = 89.4
4) CCCSc1ccc2[nH]c(NC(=O)OCCCN(C)C)nc2c1 = 83.8
5) CN(C)CCCOC(=O)Nc1nc2cc(C(=O)c3ccc(F)cc3)ccc2[nH]1 = 85.4

Value sought for every listed molecule: viability at 1 µM.
1. COC(=O)Nc1nc2cc(C(=O)c3ccccc3)ccc2[nH]1 [MEBENDAZOLE]
2. CCCSc1ccc2[nH]c(NC(=O)OCC3(C)COC3)nc2c1

RESULT:
1. 61.5
2. 83.1
